assay: Clearance in C57BL/6J mouse at 2 mg/kg, iv measured after 0.08 to 24 hrs; type: ADME, organism-based; details: in vivo, time 0.08-24 hrs
Measured Endpoint: clearance (mL/min/kg)
The figure you give is taken to be in mL/min/kg; do not add the unit.

Q) Could you tell me which clearance is on file for Cc1ccc(-c2cc(C(F)(F)F)nn2-c2ccc(S(N)(=O)=O)cc2)cc1 [CELECOXIB] ?
A) 10.5

Q) Could you tell me which clearance is on file for CCCCOc1nc(OCC(C)(C)O)c(-c2ccc(S(C)(=O)=O)cc2)cc1C(C)O (stereo not drawn) ?
A) 48.2

Now look at this entry.
Q) Could you tell me which clearance is on file for `CCCCOc1nc(-c2ccc(F)cc2)c(-c2ccc(S(C)(=O)=O)cc2)cc1CO` ?
A) 32.2

* * *

target: Prostaglandin G/H synthase 2 (Mus musculus, UniProt Q05769); assay: In vivo inhibition of COX2 in po dosed C57BL/6J mouse model of spontaneous GI-tract tumor Apc-min assessed as chemopreventive effect by measuring reduction in polyp area and relevant plasma exposures; type: functional, organism-based
Sequence (Q05769 whole entry): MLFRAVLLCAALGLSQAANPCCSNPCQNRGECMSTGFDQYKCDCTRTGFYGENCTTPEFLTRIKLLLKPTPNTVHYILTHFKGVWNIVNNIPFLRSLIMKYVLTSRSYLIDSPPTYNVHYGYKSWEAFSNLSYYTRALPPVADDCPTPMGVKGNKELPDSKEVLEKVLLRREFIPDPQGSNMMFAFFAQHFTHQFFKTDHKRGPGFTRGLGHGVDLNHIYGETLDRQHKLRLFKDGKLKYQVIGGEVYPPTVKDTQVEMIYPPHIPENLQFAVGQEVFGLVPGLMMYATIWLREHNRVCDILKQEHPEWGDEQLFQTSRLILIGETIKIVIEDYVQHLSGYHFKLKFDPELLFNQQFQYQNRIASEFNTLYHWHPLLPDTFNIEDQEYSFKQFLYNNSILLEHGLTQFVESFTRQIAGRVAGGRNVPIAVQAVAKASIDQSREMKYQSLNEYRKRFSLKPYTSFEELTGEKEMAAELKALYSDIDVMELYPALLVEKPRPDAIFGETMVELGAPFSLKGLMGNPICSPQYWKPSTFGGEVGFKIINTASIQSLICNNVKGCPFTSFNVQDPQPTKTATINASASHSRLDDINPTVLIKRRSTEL
Each entry below carries its reported IC50.
The figure you give is taken to be in nM; do not add the unit.

Q) Could you tell me which IC50 is on file for `CC(C)(O)COc1nc(OCCC(F)(F)F)c(CO)cc1-c1ccc(S(C)(=O)=O)cc1` ?
A) 1.3

Q) Could you tell me which IC50 is on file for `CC(C)(O)COc1nc(OCCCC(F)(F)F)c(CO)cc1-c1ccc(S(C)(=O)=O)cc1` ?
A) 1.9

Now look at this entry.
Q) Could you tell me which IC50 is on file for `CCCOc1nc(OCC(C)(C)O)c(-c2ccc(S(C)(=O)=O)cc2)cc1CO` ?
A) 35

* * *

tested on: Mus musculus; test: Chemo-protective activity in C57BL/6J mouse model of spontaneous GI-tract tumor Apc-min assessed as 18F-FDG uptake in ileum at 300 mg/kg, po incorporated into chow diet administered daily for 2 weeks and measured after 14 days by ex vivo PET imaging analysis relative to control; assay type: functional
Decide using Activity: a value greater than or equal to 40% is TRUE, a smaller one is FALSE.

Examples from the recorded data:
Q) Please check the record `CC(C)(O)COc1nc(OCCC(F)(F)F)c(CO)cc1-c1ccc(S(C)(=O)=O)cc1` and state if its Activity is at or above 40%.
A) TRUE

Q) Please check the record `Cc1ccc(-c2ncc(Cl)cc2-c2ccc(S(C)(=O)=O)cc2)cn1` and state if its Activity is at or above 40%.
A) TRUE

Q) Please check the record `CCCCOc1nc(OCC(C)(C)O)c(-c2ccc(S(C)(=O)=O)cc2)cc1CO` and state if its Activity is at or above 40%.
A) TRUE

Q) Please check the record `CCCOc1nc(OCC(C)(C)O)c(-c2ccc(S(C)(=O)=O)cc2)cc1CO` and state if its Activity is at or above 40%.
A) FALSE

Q) Please check the record `CCCCOc1nc(OCC2(O)CCC2)c(-c2ccc(S(C)(=O)=O)cc2)cc1CO` and state if its Activity is at or above 40%.
A) TRUE

Continuing:
Q) Please check the record `Cc1ccc(-c2cc(C(F)(F)F)nn2-c2ccc(S(N)(=O)=O)cc2)cc1` and state if its Activity is at or above 40%.
A) FALSE

Q) Please check the record `CCCCOc1nc(OCC(C)(C)O)c(-c2ccc(S(N)(=O)=O)cn2)cc1CO` and state if its Activity is at or above 40%.
A) TRUE

* * *

assay: Oral bioavailability in Sprague Dawley rat at 10 mg/kg measured up to 24 hrs by LC-MS analysis; type: ADME, organism-based; conditions: in vivo
Measured Endpoint: bioavailability
Respond with the figure and its unit, in that order.

Q) Could you tell me which bioavailability is on file for `CCCOc1nc(OCC(C)(C)O)c(-c2ccc(S(C)(=O)=O)cc2)cc1CO` ?
A) 2.3%

Continuing:
Q) Could you tell me which bioavailability is on file for `CCCCOc1nc(OCC(C)(C)O)c(-c2ccc(S(C)(=O)=O)cc2)cc1CO` ?
A) 1.5%

* * *

assay: Half life in C57BL/6J mouse at 2 mg/kg, iv measured after 0.08 to 24 hrs; assay type: ADME, organism-based; details: C57BL/6J, in vivo, time 0.08-24 hrs
Measured Endpoint: half-life
Respond with the figure and its unit, in that order.

Q) Could you tell me which half-life is on file for `CCc1cnc(OCC(C)(C)O)c(-c2ccc(S(C)(=O)=O)cc2)c1` ?
A) 0.32 h

Continuing:
Q) Could you tell me which half-life is on file for `Cc1ccc(-c2cc(C(F)(F)F)nn2-c2ccc(S(N)(=O)=O)cc2)cc1` ?
A) 1.27 h

Q) Could you tell me which half-life is on file for `Cc1ccc(-c2ncc(Cl)cc2-c2ccc(S(C)(=O)=O)cc2)cn1` ?
A) 0.78 h

Q) Could you tell me which half-life is on file for `CC(C)(O)COc1ncc(C(F)(F)F)cc1-c1ccc(S(C)(=O)=O)cc1` ?
A) 38.5 h

* * *

assay: Ratio of drug concentration in C57BL/6J mouse colon to plasma at 10 mg/kg, po measured after 4 hr by liquid chromatographic triple-quadrupole mass spectrometric method; format: ADME, organism-based; conditions: C57BL/6J, colon / plasma
Each entry below carries its reported Kp at 4 h.
Reply with just the number.

Consider the worked cases shown below.
Q) Could you tell me which Kp at 4 h is on file for `CCCCOc1nc(-c2ccc(F)cc2)c(-c2ccc(S(C)(=O)=O)cc2)cc1CO` ?
A) 24.9

Q) Could you tell me which Kp at 4 h is on file for `CCc1cnc(OCC(C)(C)O)c(-c2ccc(S(C)(=O)=O)cc2)c1` ?
A) 2.5

Q) Could you tell me which Kp at 4 h is on file for CCCCOc1nc(OCC(C)(C)O)c(-c2ccc(S(C)(=O)=O)cc2)cc1C(C)O (stereo unspecified) ?
A) 134

Q) Could you tell me which Kp at 4 h is on file for `CC(C)(O)COc1ncc(C(F)(F)F)cc1-c1ccc(S(C)(=O)=O)cc1` ?
A) 0.9

Continuing:
Q) Could you tell me which Kp at 4 h is on file for `Cc1ccc(-c2ncc(Cl)cc2-c2ccc(S(C)(=O)=O)cc2)cn1` ?
A) 1.5

Q) Could you tell me which Kp at 4 h is on file for `CCCCOc1nc(OCC2(O)CCC2)c(-c2ccc(S(C)(=O)=O)cc2)cc1CO` ?
A) 545

Q) Could you tell me which Kp at 4 h is on file for `CCCCOc1nc(OCC(C)(C)O)c(-c2ccc(S(C)(=O)=O)cc2)cc1CO` ?
A) 1620

Q) Could you tell me which Kp at 4 h is on file for `CCCCOc1nc(OCC(C)(C)O)c(-c2ccc(S(C)(=O)=O)cc2)cc1C(C)(C)O` ?
A) 2.5

Q) Could you tell me which Kp at 4 h is on file for `CCCCOc1nc(OCC(C)(C)O)c(-c2ccc(S(C)(=O)=O)cc2)cc1COCCO` ?
A) 16.5

Q) Could you tell me which Kp at 4 h is on file for `CCCOc1nc(OCC(C)(C)O)c(-c2ccc(S(C)(=O)=O)cc2)cc1CO` ?
A) 1280

Q) Could you tell me which Kp at 4 h is on file for `CCCCOc1nc(OCC2COC2)c(-c2ccc(S(C)(=O)=O)cc2)cc1CO` ?
A) 402

* * *

test: Clearance in C57BL/6J mouse at 2 mg/kg, iv measured after 0.08 to 24 hrs; type: ADME, organism-based; details: in vivo, time 0.08-24 hrs
Measured Endpoint: clearance (mL/min/kg)
The figure you give is taken to be in mL/min/kg; do not add the unit.

Consider the worked cases shown below.
Q) Could you tell me which clearance is on file for `CCCCOc1nc(OCC2COC2)c(-c2ccc(S(C)(=O)=O)cc2)cc1CO` ?
A) 102

Q) Could you tell me which clearance is on file for `CCc1cnc(OCC(C)(C)O)c(-c2ccc(S(C)(=O)=O)cc2)c1` ?
A) 65.6

Q) Could you tell me which clearance is on file for `CC(C)(O)COc1ncc(C(F)(F)F)cc1-c1ccc(S(C)(=O)=O)cc1` ?
A) 0.54

Q) Could you tell me which clearance is on file for `CCCCOc1nc(OCC2(O)COC2)c(-c2ccc(S(C)(=O)=O)cc2)cc1CO` ?
A) 68.6

Continuing:
Q) Could you tell me which clearance is on file for `CCCCOc1nc(OCC2(O)CCC2)c(-c2ccc(S(C)(=O)=O)cc2)cc1CO` ?
A) 100

Q) Could you tell me which clearance is on file for `CCCCOc1nc(OCC2(C)COC2)c(-c2ccc(S(C)(=O)=O)cc2)cc1CO` ?
A) 89.3

Q) Could you tell me which clearance is on file for `CCCCOc1nc(OCC(C)(C)O)c(-c2ccc(S(C)(=O)=O)cc2)cc1COCCO` ?
A) 55.4

Q) Could you tell me which clearance is on file for `Cc1ccc(-c2ncc(Cl)cc2-c2ccc(S(C)(=O)=O)cc2)cn1` ?
A) 41.3

Q) Could you tell me which clearance is on file for `CCCCOc1nc(OCC(C)(C)O)c(-c2ccc(S(C)(=O)=O)cc2)cc1C(C)(C)O` ?
A) 58.8

Q) Could you tell me which clearance is on file for `CCCOc1nc(OCC(C)(C)O)c(-c2ccc(S(C)(=O)=O)cc2)cc1CO` ?
A) 92.7
